- experimentalSystem: T1, human CD47 protein on CHO-K1-CD47 cells (human, UniProt Q08722 19-323)
- T1 construct: whole, on cells; also called CHO-K1 cells expressing human CD47 protein
- measurementNotes: cell binding, CHO-K1-CD47 cells, high content imaging
measurementLabel: EC50
Numeric answer plus unit only.

- binder: "hz3F10-1.2 (antibody, human IgG4 S228P, kappa, V domains shown, humanized 3F10, full-length heavy and light chains) VH: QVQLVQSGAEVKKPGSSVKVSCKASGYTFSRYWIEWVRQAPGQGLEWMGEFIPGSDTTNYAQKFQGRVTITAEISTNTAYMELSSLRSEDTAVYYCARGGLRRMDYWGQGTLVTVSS VL: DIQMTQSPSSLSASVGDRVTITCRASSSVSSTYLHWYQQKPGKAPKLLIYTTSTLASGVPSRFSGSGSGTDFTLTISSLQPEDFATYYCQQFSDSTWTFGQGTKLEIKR"
  measurementLabel: "EC50"
  assayValue: "1.27 µg/mL"
- binder: "hz3F10-5.1 (antibody, human IgG4 S228P, kappa, V domains shown, humanized 3F10, full-length heavy and light chains) VH: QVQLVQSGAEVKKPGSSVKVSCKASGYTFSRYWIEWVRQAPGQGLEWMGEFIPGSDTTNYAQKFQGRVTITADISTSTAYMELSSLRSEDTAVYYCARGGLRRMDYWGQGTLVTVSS VL: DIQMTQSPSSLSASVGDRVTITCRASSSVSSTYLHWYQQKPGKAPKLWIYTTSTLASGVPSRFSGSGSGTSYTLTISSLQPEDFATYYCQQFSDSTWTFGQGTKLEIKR"
  measurementLabel: "EC50"
  assayValue: "1.48 µg/mL"
- binder: "hz14A9-2.4 (antibody, human IgG4 S228P, kappa, V domains shown, humanized 14A9, full-length heavy and light chains) VH: QVQLVQSGAEVKKPGASVKVSCKVSGFNIEDDYIEWVRQAPGQGLEWMGRIDPANDKTKYAQKFQGRVTMTGDTSTNTVYMELSSLRSEDTAVYYCTRPGLRRYYSMDYWGQGTLVTVSS VL: DIQMTQSPSSLSASVGDRVTITCKASENVVSYVSWYQQKPGKAPKLLIYGASNRYTGVPSRFIGSGSSTDFTLTISSLQPEDFATYYCGQSYSYPLTFGQGTKLEIKR"
  measurementLabel: "EC50"
  assayValue: "0.471 µg/mL"
- binder: "hz14A9-2.3 (antibody, human IgG4 S228P, kappa, V domains shown, humanized 14A9, full-length heavy and light chains) VH: QVQLVQSGAEVKKPGASVKVSCKVSGFNIEDDYIEWVRQAPGQGLEWMGRIDPANDKTKYAQKFQGRVTMTGDTSTNTVYMELSSLRSEDTAVYYCARPGLRRYYSMDYWGQGTLVTVSS VL: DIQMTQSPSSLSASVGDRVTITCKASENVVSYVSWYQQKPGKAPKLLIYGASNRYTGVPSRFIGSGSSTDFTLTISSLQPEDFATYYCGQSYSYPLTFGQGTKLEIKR"
  measurementLabel: "EC50"
  assayValue: "0.499 µg/mL"
- binder: "hz3F10-6.2 (antibody, human IgG4 S228P, kappa, V domains shown, humanized 3F10, full-length heavy and light chains) VH: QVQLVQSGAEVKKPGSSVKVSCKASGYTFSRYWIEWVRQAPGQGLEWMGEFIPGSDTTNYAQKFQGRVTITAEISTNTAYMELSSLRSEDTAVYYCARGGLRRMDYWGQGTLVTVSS VL: DIQMTQSPSSLSASVGDRVTITCRASSSVSSTYLHWYQQKPGKAPKLWIYTTSTLASGVPSRFSGSGSGTSYTLTISSLQPEDFATYYCQQFSESTWTFGQGTKLEIKR"
  measurementLabel: "EC50"
  assayValue: "1.49 µg/mL"
- binder: "hz3F10-2.1 (antibody, human IgG4 S228P, kappa, V domains shown, humanized 3F10, full-length heavy and light chains) VH: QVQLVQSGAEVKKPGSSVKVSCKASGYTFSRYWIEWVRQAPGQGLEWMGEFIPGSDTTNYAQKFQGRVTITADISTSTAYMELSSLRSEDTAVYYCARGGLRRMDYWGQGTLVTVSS VL: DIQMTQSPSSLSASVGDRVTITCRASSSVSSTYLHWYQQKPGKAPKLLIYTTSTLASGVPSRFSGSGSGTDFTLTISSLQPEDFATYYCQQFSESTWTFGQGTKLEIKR"
  measurementLabel: "EC50"
  assayValue: "1.07 µg/mL"
- binder: "hz3F10-1.1 (antibody, human IgG4 S228P, kappa, V domains shown, humanized 3F10, full-length heavy and light chains) VH: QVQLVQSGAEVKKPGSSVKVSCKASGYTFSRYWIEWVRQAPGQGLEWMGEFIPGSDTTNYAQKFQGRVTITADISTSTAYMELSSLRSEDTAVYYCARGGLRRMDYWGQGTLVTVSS VL: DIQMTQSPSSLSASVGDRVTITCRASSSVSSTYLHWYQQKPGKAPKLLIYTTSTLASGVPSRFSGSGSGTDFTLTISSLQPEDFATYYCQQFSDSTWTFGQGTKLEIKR"
  measurementLabel: "EC50"
  assayValue: "0.876 µg/mL"
- binder: "hz3F10-3.2 (antibody, human IgG4 S228P, kappa, V domains shown, humanized 3F10, full-length heavy and light chains) VH: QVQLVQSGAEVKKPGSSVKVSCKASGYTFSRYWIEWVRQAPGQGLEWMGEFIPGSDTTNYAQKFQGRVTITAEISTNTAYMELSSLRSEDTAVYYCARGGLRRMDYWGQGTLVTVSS VL: DIQMTQSPSSLSASVGDRVTITCRASSSVSSTYLHWYQQKPGKAPKLLIYTTSTLASGVPSRFSGSGSGTSYTLTISSLQPEDFATYYCQQFSDSTWTFGQGTKLEIKR"
  measurementLabel: "EC50"
  assayValue: "1.2 µg/mL"

Would you mind listing EC50 for each of the following binders?
1. hz3F10-4.2 (antibody, human IgG4 S228P, kappa, V domains shown, humanized 3F10, full-length heavy and light chains) VH: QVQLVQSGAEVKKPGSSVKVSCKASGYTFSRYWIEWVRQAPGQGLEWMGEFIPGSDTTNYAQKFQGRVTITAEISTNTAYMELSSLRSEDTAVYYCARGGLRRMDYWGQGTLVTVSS VL: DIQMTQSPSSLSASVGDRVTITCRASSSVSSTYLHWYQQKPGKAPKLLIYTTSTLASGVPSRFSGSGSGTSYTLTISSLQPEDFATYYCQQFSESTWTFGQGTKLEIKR
2. hz3F10-2.2 (antibody, human IgG4 S228P, kappa, V domains shown, humanized 3F10, full-length heavy and light chains) VH: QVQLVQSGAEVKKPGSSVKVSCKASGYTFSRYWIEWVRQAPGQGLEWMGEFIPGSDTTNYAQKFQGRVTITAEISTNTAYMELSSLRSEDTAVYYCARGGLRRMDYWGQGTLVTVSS VL: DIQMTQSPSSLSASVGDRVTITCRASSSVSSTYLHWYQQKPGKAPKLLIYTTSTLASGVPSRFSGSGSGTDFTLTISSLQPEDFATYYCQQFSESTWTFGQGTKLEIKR

1.26 µg/mL
1.12 µg/mL
